Molecular target: Peroxisome proliferator-activated receptor alpha (Homo sapiens) (UniProt Q07869)
Sequence (Q07869 whole entry, looked up): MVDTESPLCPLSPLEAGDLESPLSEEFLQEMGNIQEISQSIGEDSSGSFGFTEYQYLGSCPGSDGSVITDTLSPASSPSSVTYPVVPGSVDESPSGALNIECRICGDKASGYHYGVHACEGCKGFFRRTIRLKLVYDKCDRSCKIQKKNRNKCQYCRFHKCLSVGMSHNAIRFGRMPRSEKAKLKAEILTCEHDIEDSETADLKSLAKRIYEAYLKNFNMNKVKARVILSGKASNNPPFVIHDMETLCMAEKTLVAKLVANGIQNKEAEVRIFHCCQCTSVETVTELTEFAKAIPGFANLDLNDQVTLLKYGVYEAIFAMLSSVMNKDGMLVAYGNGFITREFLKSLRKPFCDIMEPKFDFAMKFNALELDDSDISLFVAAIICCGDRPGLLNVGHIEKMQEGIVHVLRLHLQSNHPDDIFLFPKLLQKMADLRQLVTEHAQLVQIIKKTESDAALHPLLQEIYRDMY
Assay: qHTS assay for small molecule agonists of the peroxisome proliferator-activated receptor alpha (PPARalpha) signaling pathway (AID 651778); note: % of control where 0% means no effect
Settings: PathHunter PPARalpha complementation, chemiluminescence, 6 h; hits give high values
Listing of recorded max response by entry.
MEASURED QUANTITY: max response (%)

> print(dat)
                                   compound  unit.of.measure  value.observed
1  CCC(C)c1cc([N+](=O)[O-])cc([N+](=O)[O-])c1O (stereo not drawn)                %           -1.93
2  CCCSP(=O)(OCC)Oc1ccc(Br)cc1Cl (stereo not drawn)                %          -0.001
3  COc1cnc(OC)n2nc(NS(=O)(=O)c3c(OCC(F)F)cccc3C(F)(F)F)nc12                %           -1.19
4       COc1cc(OC)nc(Sc2cccc(Cl)c2C(=O)O)n1                %           -1.08
5  CCCCOC(=O)[C@@H](C)Oc1ccc(Oc2ccc(C#N)cc2F)cc1                %            5.77
6          CCOP(=S)(OCC)Oc1nc(Cl)n(C(C)C)n1                %           0.789
7                       C1=Cc2cccc3cccc1c23                %            3.92
8  Cc1cc(Cl)ccc1OC(C)C(=O)O (stereo not drawn)                %            2.19

Source of measurements: PubChem BioAssay (NCATS)
